The measured values listed here are drawn from ChEMBL document CHEMBL4732206.

test system: HeLa; experiment: Antiproliferative activity against human HeLa cells assessed as reduction in cell viability incubated for 48 hrs by MTT assay; type: functional, cell-based
Observable: IC50 (µM)

Below, 5 molecules whose answers are already recorded.
IC50 measured on COc1ccc(C2NC2c2cc(OC)c(OC)c(OC)c2)cc1F (configuration not stated) = 1.09

IC50 in this record for COc1ccc(C2C(c3cc(OC)c(OC)c(OC)c3)N2C)cc1F (configuration not stated) : 4.39

Item: COc1cc(C2N=C2c2ccccc2)cc(OC)c1OC (configuration not stated) | IC50: 1.93

Entry under test: COc1ccc(C2=NC2c2cc(OC)c(OC)c(OC)c2)cc1 (configuration not stated) . Its IC50 was 1.54

Per the record, COc1ccc(C2=NC2c2cc(OC)c(OC)c(OC)c2)cc1F (configuration not stated) has IC50 of 0.73

a: COc1cc(C2=NC2c2ccc(SC)cc2)cc(OC)c1OC (configuration not stated)
b: COc1cc(C2=NC2c2ccc3ccccc3c2)cc(OC)c1OC (configuration not stated)
c: COc1ccc([C@@H]2N=C2c2cc(OC)c(OC)c(OC)c2)cc1F
IN: // ascending sort on recorded IC50 Submit the labels in the order that the ranking request calls for.
OUT: c, a, b
(c: 0.72 µM, a: 2.19 µM, b: 11.8 µM)

P: COc1cc(C2=NC2c2ccc3c(c2)OCO3)cc(OC)c1OC (configuration not stated)
Q: COc1ccc(C2N=C2c2cc(OC)c(OC)c(OC)c2)cc1OC (configuration not stated)
IN: Of P and Q , which one carries the higher reported IC50? Write the label of whichever entry you select.
OUT: Q
(Q: 4.17 µM, P: 2.02 µM)

I: COc1cc(C2=NC2c2ccccc2)cc(OC)c1OC (configuration not stated)
II: COc1cc(C2N=C2c2ccc3c(c2)OCO3)cc(OC)c1OC (configuration not stated)
IN: Hey, between I and II which has a smaller measured IC50? Bench note: the answer is the label of the chosen record.
OUT: II
(II: 1.52 µM, I: 4.5 µM)
